Tested on: RXF 393 renal
Assay: NCI-60 one-dose screen, 48 h
Conditions: 10 µM unless noted
Method: Cells are grown in 96 well plates and exposed to the test compound for 48 hours. Compounds are tested at a single concentration, which is 10^-5 M for most compounds. The reported endpoint is percent growth (GI% or GIPRCNT), where numbers from 0 - 100% represent growth inhibition, and numbers from -100% - 0 represent cell death. For example, a value of 40 represents 60% growth inhibition. A value of 0 means no net growth occurred over the course of the experiment. […]
About 83,000 compounds went through this panel and 20% of them were active in at least one assay; those are over-represented in the sample as a whole. Activity calls are given as the source filed them. Rule for the calls: active = growth percent below 10; inactive = the rest.
Return exactly one item of active, inactive

Q: Test call, this compound: Fc1cc2[nH]ncc2c2c3c(c(-c4cn[nH]c4)nc12)CCCC3
Result: active

----------
Test system: NCI-H23 lung
Assay: NCI-60 one-dose screen, 48 h (100 = growth as untreated, 0 = no growth, -100 = all killed)
Conditions: 10 µM unless noted
About 83,000 compounds went through this panel and 20% of them were active in at least one assay; those are over-represented in the sample as a whole.
// reported growth for each item listed
Give a bare numeral; the unit % is implied.

The examples below pair each entry with its known result.
compound	growth (%)
CCOC(=O)Nc1ccc2c(c1)/C(=N\NC(=S)NC)c1ccccc1-2	93.8
CCCCC1COc2cccc3c2N1C=C/C3=C\C(=O)n1ccc2ccccc21 (centres undefined)	76.5
O=S(=O)(NCCCNc1nccc(-c2c(-c3cccc(F)c3)nc3occn23)n1)c1cccc2ccccc12	63.9

The value of growth measured for the compound CCCC(NC(=O)OCc1ccccc1)C(=O)O (centres undefined) turned out to be -1.29

----------
System: UACC-62 melanoma
Assay: NCI-60 one-dose screen, 48 h (100 = growth as untreated, 0 = no growth, -100 = all killed)
Settings: 10 µM unless noted
The panel holds about 83,000 compounds, 20% with a hit somewhere; the sample as a whole holds those more often. Calls of active or inactive are those of the source. The calls were made as follows: active = growth percent below 10; inactive = the rest.
recorded-endpoint: growth

The examples below pair each entry with its known result.
compound	growth
CC1Cc2ccc(OCCN(C)C)cc2C1=O (centres undefined)	105% (inactive)
CCCCC(CCCCCC(CCCC)C1NC(C)Cc2cc(OC)c(OC)cc21)C1NC(C)Cc2cc(OC)c(OC)cc21 (centres undefined)	-70% (active)

Fill in: UACC-62 melanoma growth for CC(C)[C@H]1COC(=O)N1[C@@H]1C(=O)N([C@@H](CCC(=O)N2CCN(C3CCCC3)CC2)C(=O)N[C@@H]2CCCc3ccccc32)[C@@H]1/C=C/c1cccc(Cl)c1 = 67.8% (inactive)

Fill in: UACC-62 melanoma growth for O=C(Nc1ccccc1)Nc1ccc(C(=O)/C=C/c2ccc(N3CCCC3)cc2)cc1 = 42.2% (inactive)

Fill in: UACC-62 melanoma growth for CC1(C)CC[C@]2(C(=O)O)CC[C@]3(C)[C@H](CC[C@@H]4[C@@]5(C)CCC(=O)C(C)(C)[C@@H]5CC[C@]43C)[C@H]2[C@H]1OC(=O)C(F)(F)F = -85.2% [100 µM] (active)

Fill in: UACC-62 melanoma growth for O=C(Nc1cccc2ccccc12)c1cc2ccccc2cc1O = 17.4% (inactive)

----------
Test system: IGROV1 ovarian
Assay: NCI-60 one-dose screen, 48 h (100 = growth as untreated, 0 = no growth, -100 = all killed)
Details: 10 µM unless noted
The panel holds about 83,000 compounds, 20% with a hit somewhere; the sample as a whole holds those more often.
// reported growth for each item listed
Give a bare numeral; the unit % is implied.

The examples below pair each entry with its known result.
record-smiles	growth / %
C#C[C@]1(O)CC[C@H]2[C@@H]3CC=C4c5nc(Nc6ccc(OC)cc6OC)sc5CC[C@]4(C)[C@H]3CC[C@@]21C	43.2
CC(C)C1=NOC(=O)C1=Cc1cn(-c2ccccc2)nc1-c1cccc([N+](=O)[O-])c1	70.4

The value of growth measured for the compound c1nc(N2CCOCC2)c2[nH]ccc2n1 turned out to be 112

The value of growth measured for the compound O=C(Nc1cccc2ccccc12)c1cc2ccccc2cc1O turned out to be 7.48

The value of growth measured for the compound Nn1c(Nc2ccc(S(=O)(=O)Nc3ncccn3)cc2)nnc(/C=C/c2c(O)ccc3ccccc23)c1=O turned out to be 82.9

----------
System: HOP-62 NSCLC
Experiment: NCI-60 one-dose screen, 48 h
Details: 10 µM unless noted
The panel holds about 83,000 compounds, 20% with a hit somewhere; the sample as a whole holds those more often. Active and inactive are the calls of the source. How the source made its calls: active means growth percent below 10; inactive means the rest.
Return exactly one item of active, inactive

Before answering, review these 6 worked examples.
molecule	class-assignment
Fc1cc2[nH]ncc2c2c3c(c(-c4cn[nH]c4C(F)(F)F)nc12)C1CCC3C1 (configuration not stated)	active
Cc1ccc(Cn2c(O)c(N=NC(=O)c3ccc(S(N)(=O)=O)cc3)c3ccccc32)cc1	inactive
COc1cc(C)cc2oc3oc(=O)c(-c4nc5ccccc5s4)cc3c(=O)c12	inactive
COc1ccc(-c2cc(-c3ccccc3)nc(SCCCCCC(=O)NO)n2)cc1	inactive
CC1(C)CC[C@]2(C(N)=O)CC[C@]3(C)C(=CC[C@@H]4[C@@]5(C)C/C(=C/c6ccncc6)C(=O)C(C)(C)[C@@H]5CC[C@]43C)[C@@H]2C1	active
COCCCNc1nc(NC(=O)c2cc(Br)cc(C(F)(F)F)c2)cc(-c2cccnc2)n1	inactive

Then this molecule:
Q: Test call, this molecule: CN(C)C(=S)Sc1ccc([N+](=O)[O-])cc1[N+](=O)[O-]
Result: inactive

----------
Test system: OVCAR-4 ovarian
Test: NCI-60 one-dose screen, 48 h (100 = growth as untreated, 0 = no growth, -100 = all killed)
Settings: 10 µM
About 83,000 compounds went through this panel and 20% of them were active in at least one assay; those are over-represented in the sample as a whole.
recorded-endpoint: growth (%)
Give a bare numeral; the unit % is implied.

The examples below pair each entry with its known result.
record-smiles	result-number
C[N+](C)(C)c1ncnc2[n-]cnc12	105
O=C(CCCSc1nc(-c2ccccc2)cc(-c2ccccc2)n1)NO	11.9

Fill in: OVCAR-4 ovarian growth for C[n+]1c(-c2ccccc2)c2cc(N)ccc2c2ccccc21 = 29.8

Fill in: OVCAR-4 ovarian growth for Cc1ccc(S(=O)(=O)n2cc(C(=O)C(=O)N3CCCCC3)c3ccccc32)cc1 = 49.9

Fill in: OVCAR-4 ovarian growth for Cc1cc(C)c(-c2cc(O)c(-c3c(C)cc(C)cc3C)cc2O)c(C)c1 = 58.9

Fill in: OVCAR-4 ovarian growth for Cc1cc(N2CCCCCC2)nc(N2CCN(CC(=O)Nc3ccc4c(ccn4Cc4ccccc4)c3)CC2)n1 = 46.1

Fill in: OVCAR-4 ovarian growth for Cc1ccccc1-n1nnc(C(=O)Nc2nc3ccc(F)cc3s2)c1C = 10.6

----------
System: MDA-MB-231 breast
Experiment: NCI-60 one-dose screen, 48 h (100 = growth as untreated, 0 = no growth, -100 = all killed)
Conditions: 10 µM unless noted
Procedure: Cells are grown in 96 well plates and exposed to the test compound for 48 hours. Compounds are tested at a single concentration, which is 10^-5 M for most compounds. The reported endpoint is percent growth (GI% or GIPRCNT), where numbers from 0 - 100% represent growth inhibition, and numbers from -100% - 0 represent cell death. For example, a value of 40 represents 60% growth inhibition. A value of 0 means no net growth occurred over the course of the experiment. […]
About 83,000 compounds went through this panel and 20% of them were active in at least one assay; those are over-represented in the sample as a whole. The source made the active and inactive calls. Rule for the calls: active = growth percent below 10; inactive = the rest.
// reported growth for each item listed

The value of growth measured for the molecule COc1ccc(OC)c([N+](=O)[O-])c1C(=O)CNC(C)=O turned out to be 98.4% (inactive)

----------
Test system: SN12C renal
Test: NCI-60 one-dose screen, 48 h (100 = growth as untreated, 0 = no growth, -100 = all killed)
Settings: 10 µM unless noted
The panel holds about 83,000 compounds, 20% with a hit somewhere; the sample as a whole holds those more often. Activity calls are given as the source filed them. How the source made its calls: active means growth percent below 10; inactive means the rest.
// reported growth for each item listed

compound	growth
O=C(N=c1n(-c2ccccc2)nc2n1CCN2C1=NCCN1C(=O)c1ccc(Cl)cc1)c1ccc(Cl)cc1	80.8% (inactive)
CCCCN(CC)CC(CC)Nc1cc(OC)cc2cccnc12 (stereo not given)	99.7% (inactive)
O=C(Nc1cccc(F)c1)c1cc(=O)[nH]c2cc(Br)ccc12	60% (inactive)
Cc1cnc([C@]23CC[C@@H](C)[C@H](C)[C@H]2C2=CC[C@@H]4[C@@]5(C)Cc6c([nH]c7ccccc67)C(C)(C)[C@@H]5CC[C@@]4(C)[C@]2(C)CC3)o1	36.7% [100 µM] (inactive)
COc1ccc(C=C2c3ccccc3-c3ccccc32)cc1	61.6% (inactive)

The value of growth measured for the compound CCOC(=O)/C(C#N)=C(\C)CCc1ccccc1 turned out to be 118% (inactive)

The value of growth measured for the compound COc1ccc(-c2c(C)nn3c(NCCN4CCOCC4)cc(C)nc23)cc1OC turned out to be 100% (inactive)

The value of growth measured for the compound CCOC(=O)COc1ccc2c(c1)O/C(=C\c1ccc(O)cc1)C2=O turned out to be 98.7% (inactive)

The value of growth measured for the compound CSc1nc(=S)c2nc(SC)n(-c3ccccc3)c2[nH]1 turned out to be 96.7% (inactive)

The value of growth measured for the compound CCOC(=O)c1cc(C#N)n2ncc3ccccc3c12 turned out to be 95.3% (inactive)
